- experiment notes: Inhibition of HIV1 YU2 gp120 binding to immobilized CD4 induced 17b monoclonal antibody by surface plasmon resonance method
- Design: species or system Human immunodeficiency virus 1
measurement label: IC50 (µM)
# unit: µM | format: bare number

What value of measured IC50 is listed for CC[C@H](C)[C@H](NC(=O)[C@@H](N)CCCNC(=N)N)C(=O)N[C@@H](CC(N)=O)C(=O)N[C@@H](CC(N)=O)C(=O)N[C@H](C(=O)N1CCC[C@H]1C(=O)N[C@@H](Cc1c[nH]c2ccccc12)C(=O)N[C@@H](CO)C(=O)N[C@@H](CCC(=O)O)C(=O)N[C@@H](C)C(=O)N[C@@H](CCSC)C(=O)N[C@@H](CCSC)C(=O)O)[C@@H](C)CC ? 7.2
